Would you kindly list binding signal for each of these binders?
- TARGET_OR_TEST_SYSTEM: T1, AtbZIP63 (Arabidopsis thaliana, UniProt B9DGI8 1-314)
- T1 sequence: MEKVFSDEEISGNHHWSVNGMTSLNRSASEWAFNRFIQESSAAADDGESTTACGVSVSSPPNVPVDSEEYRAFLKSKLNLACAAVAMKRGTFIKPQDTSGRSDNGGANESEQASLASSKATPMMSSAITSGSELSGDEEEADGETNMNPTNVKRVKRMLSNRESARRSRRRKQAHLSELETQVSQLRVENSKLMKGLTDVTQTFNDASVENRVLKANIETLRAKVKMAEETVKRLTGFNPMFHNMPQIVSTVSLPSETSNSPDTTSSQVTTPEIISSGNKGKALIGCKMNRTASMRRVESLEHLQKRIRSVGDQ
- ASSAY_NOTES: DPI-ELISA; DPI-ELISA, streptavidin 384-well plate, 1-2 pmol biotinylated dsDNA per well, crude native E. coli extract, anti-His detection; buffer as in Brand et al. [46],; high values mean tight binding
- ASSAY_SETUP: tags: C-terminal His (pET-DEST42); chain copies: 2; label: 5' biotin on forward strand

Prompt line: GET /values?readout=binding signal&item= 124 (dsDNA) DNA 1: AAAAAAACTCACGGCGTCACTATGGTAAAA DNA 2: TTTTACCATAGTGACGCCGTGAGTTTTTTT
Response line: 2.46 relative normalized absorbance

Prompt line: Next entry: 270 (dsDNA) DNA 1: AAAAAACATGTCGCACCTGTACTAACAAAA DNA 2: TTTTGTTAGTACAGGTGCGACATGTTTTTT
Response line: 1.93 relative normalized absorbance

Prompt line: Note, next up: 313 (dsDNA) DNA 1: AAAAAATCGCGAACGTACGTCCGCGGAAAA DNA 2: TTTTCCGCGGACGTACGTTCGCGATTTTTT
Response line: 2.62 relative normalized absorbance
